tested on: HEL; experiment: The compound was tested for antiviral activity by measuring the concentration required to reduce plaque formation against Varicella zoster TK-(deficient) 07/1 strain; assay type: functional, cell-based; conditions: Homo sapiens
quantity_name: IC50

// below: answered compounds
                               smiles_entry  quantity_name  readout_value
0  O=C1O/C(=C\Cn2cc(Br)c(=O)[nH]c2=O)C(OCc2ccccc2)=C1OCc1ccccc1           IC50      > 2000 nM
1  O=C1O/C(=C\Cn2cc(Cl)c(=O)[nH]c2=O)C(OCc2ccccc2)=C1OCc1ccccc1           IC50      > 2000 nM

Now let's try a different one.
// `O=C1O/C(=C\Cn2cnc3c(Cl)ncnc32)C(OCc2ccccc2)=C1OCc1ccccc1` : IC50 value = > 5000 nM
